# EXPERIMENTAL PARAMETERS: in DMF, 327.6 K
EXPERIMENTAL READOUT: solubility (mole fraction)
Format: numeric value only, no unit, no commentary.

[in] Look up solubility (mole fraction) of Cc1ccc(S(=O)(=O)[O-])cc1Cl.[Na+] and report it.
[out] 0.0252

###

# EXPERIMENTAL PARAMETERS: in methanol, 302.6 K
EXPERIMENTAL READOUT: solubility (mole fraction)
Form field (numeric): enter value without unit.

[in] # return recorded solubility (mole fraction) for input Cc1ccc(S(=O)(=O)[O-])cc1Cl.[Na+]
[out] 0.00498

###

# EXPERIMENTAL PARAMETERS: in formic acid, 335.5 K
EXPERIMENTAL READOUT: solubility (mole fraction)

[in] For the compound Cc1ccc(S(=O)(=O)[O-])cc1Cl.[Na+] , give its measured solubility (mole fraction) value.
[out] 0.0503

###

# EXPERIMENTAL PARAMETERS: in DMF, 319 K
EXPERIMENTAL READOUT: solubility (mole fraction)

[in] Fill in reported solubility (mole fraction) for this entry: Cc1ccc(S(=O)(=O)[O-])cc1Cl.[Na+]
[out] 0.0235

###

# EXPERIMENTAL PARAMETERS: in water, 301.2 K
EXPERIMENTAL READOUT: solubility (mole fraction)
I only need the number, thanks.

[in] Answer with reported solubility (mole fraction) of Cc1ccc(S(=O)(=O)[O-])cc1Cl.[Na+]
[out] 0.00661

###

# EXPERIMENTAL PARAMETERS: in DMF, 314.8 K
EXPERIMENTAL READOUT: solubility (mole fraction)
Answer with the value's number alone.

[in] Quickly give me recorded solubility (mole fraction) for Cc1ccc(S(=O)(=O)[O-])cc1Cl.[Na+]
[out] 0.0228

###

# EXPERIMENTAL PARAMETERS: in methanol, 333.1 K
EXPERIMENTAL READOUT: solubility (mole fraction)
Would you mind answering with just the numeric figure?

[in] Please indicate solubility (mole fraction) recorded for Cc1ccc(S(=O)(=O)[O-])cc1Cl.[Na+]
[out] 0.0067

###

# EXPERIMENTAL PARAMETERS: in water, 318.7 K
EXPERIMENTAL READOUT: solubility (mole fraction)

[in] Identify the reported solubility (mole fraction) for the following entry. Cc1ccc(S(=O)(=O)[O-])cc1Cl.[Na+]
[out] 0.0101

###

# EXPERIMENTAL PARAMETERS: in DMF, 322.1 K
EXPERIMENTAL READOUT: solubility (mole fraction)
Form: value (number only, do not type unit).

[in] Identify solubility (mole fraction) associated with the compound Cc1ccc(S(=O)(=O)[O-])cc1Cl.[Na+]
[out] 0.024

###

# EXPERIMENTAL PARAMETERS: in methanol, 287.1 K
EXPERIMENTAL READOUT: solubility (mole fraction)
Response field accepts a number only; no unit should be typed.

[in] Indicate the recorded solubility (mole fraction) value for this compound: Cc1ccc(S(=O)(=O)[O-])cc1Cl.[Na+]
[out] 0.00409

###

# EXPERIMENTAL PARAMETERS: in DMF, 280.6 K
EXPERIMENTAL READOUT: solubility (mole fraction)
Enter a number only.

[in] Supply solubility (mole fraction) value. Item: Cc1ccc(S(=O)(=O)[O-])cc1Cl.[Na+]
[out] 0.0203
